Test system: PPARg:RXRa 270nM:90nM, anti-RXR (NR concentration 270 nM, RXRa partner concentration 90 nM)
protocolText: PBM binding z-score (relative to random genomic background probes); higher = stronger binding; sequences stand for … in GC…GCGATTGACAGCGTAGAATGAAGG
Parameter threshold = 1. Response is Criterion met when PBM binding z-score meets or exceeds it, else Criterion not met.

INSERT INTO assay_data (primarysequence, discretelabel) VALUES
  ('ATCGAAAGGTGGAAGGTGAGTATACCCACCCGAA', 'Criterion met'),
  ('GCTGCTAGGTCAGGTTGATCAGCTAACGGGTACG', 'Criterion not met'),
  ('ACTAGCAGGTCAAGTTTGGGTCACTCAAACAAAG', 'Criterion met'),
  ('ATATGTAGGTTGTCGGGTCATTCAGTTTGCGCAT', 'Criterion met'),
  ('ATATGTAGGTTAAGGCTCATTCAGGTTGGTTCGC', 'Criterion met'),
  ('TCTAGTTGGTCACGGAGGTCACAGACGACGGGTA', 'Criterion met'),
  ('CCTTAAGGGTCAAGGTTATAGCACGGGTGGTACG', 'Criterion met'),
  ('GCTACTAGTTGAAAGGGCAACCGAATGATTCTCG', 'Criterion met'),
  ('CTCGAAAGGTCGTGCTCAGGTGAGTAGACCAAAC', 'Criterion met'),
  ('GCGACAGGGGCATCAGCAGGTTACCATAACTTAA', 'Criterion not met'),
  ('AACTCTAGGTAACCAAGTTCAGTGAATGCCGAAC', 'Criterion not met'),
  ('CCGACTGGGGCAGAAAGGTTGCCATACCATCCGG', 'Criterion met'),
  ('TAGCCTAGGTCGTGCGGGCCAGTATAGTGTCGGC', 'Criterion not met'),
  ('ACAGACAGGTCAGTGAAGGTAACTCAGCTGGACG', 'Criterion met'),
  ('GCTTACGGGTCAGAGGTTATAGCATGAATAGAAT', 'Criterion met'),
  ('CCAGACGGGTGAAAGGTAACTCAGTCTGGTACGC', 'Criterion met'),
  ('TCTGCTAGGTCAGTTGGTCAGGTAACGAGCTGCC', 'Criterion met'),
  ('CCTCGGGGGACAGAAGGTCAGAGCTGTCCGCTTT', 'Criterion met'),
  ('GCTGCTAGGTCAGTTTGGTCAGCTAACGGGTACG', 'Criterion not met'),
  ('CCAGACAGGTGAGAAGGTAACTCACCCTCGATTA', 'Criterion not met'),
  ('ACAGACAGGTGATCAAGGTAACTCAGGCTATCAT', 'Criterion not met'),
  ('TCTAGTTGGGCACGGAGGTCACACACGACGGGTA', 'Criterion met'),
  ('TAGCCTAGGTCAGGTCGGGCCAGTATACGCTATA', 'Criterion not met'),
  ('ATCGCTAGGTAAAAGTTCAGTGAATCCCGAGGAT', 'Criterion met'),
  ('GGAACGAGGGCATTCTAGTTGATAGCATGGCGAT', 'Criterion not met'),
  ('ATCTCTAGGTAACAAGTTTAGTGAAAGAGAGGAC', 'Criterion met'),
  ('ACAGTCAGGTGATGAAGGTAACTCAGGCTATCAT', 'Criterion not met'),
  ('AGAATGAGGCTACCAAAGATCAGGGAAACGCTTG', 'Criterion not met'),
  ('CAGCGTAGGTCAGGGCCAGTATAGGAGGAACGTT', 'Criterion not met'),
  ('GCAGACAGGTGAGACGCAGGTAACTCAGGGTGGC', 'Criterion not met'),
  ('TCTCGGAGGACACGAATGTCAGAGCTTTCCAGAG', 'Criterion not met'),
  ('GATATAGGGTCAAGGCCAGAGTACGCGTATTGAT', 'Criterion met'),
  ('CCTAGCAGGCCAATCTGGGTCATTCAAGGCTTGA', 'Criterion met'),
  ('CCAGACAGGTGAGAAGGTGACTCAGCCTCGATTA', 'Criterion not met'),
  ('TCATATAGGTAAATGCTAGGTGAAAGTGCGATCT', 'Criterion met'),
  ('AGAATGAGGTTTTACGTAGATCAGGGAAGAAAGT', 'Criterion not met');
